# assay notes: Tmax in dog at 0.14 mg/kg, intranasal
# Type: ADME, organism-based, Canis lupus familiaris
# Design: dose 0.14 mg/kg
# assay context: in vivo, inhaled or intranasal
measurement kind: Tmax (h)
Report only the number, with the unit h understood.

Look at this compound and give its reported Tmax. C[C@@H]1CN(C(=O)[C@@H]2CN(C(C)(C)C)C[C@H]2c2ccc(F)cc2F)C[C@H](C)[C@@]1(O)c1ccccc1.Cl 1.6

---

# assay notes: Bioavailability in dog at 2.04 mg/kg, sublingual
# Assay type: ADME, organism-based, Canis lupus familiaris
# assay context: in vivo
measurement kind: bioavailability (%)
Report only the number, with the unit % understood.

Look at this molecule and give its reported bioavailability. C[C@@H]1CN(C(=O)[C@@H]2CN(C(C)(C)C)C[C@H]2c2ccc(F)cc2F)C[C@H](C)[C@@]1(O)c1ccccc1.Cl 20

---

Item-by-item account of Ki
# assay notes: Binding affinity to sodium channel
Hey, just the number and the unit after it is fine.

- C[C@@H]1CN(C(=O)[C@@H]2CN(C(C)(C)C)C[C@H]2c2ccc(F)cc2F)C[C@H](C)[C@@]1(O)c1ccccc1.Cl: 690 nM

// below: Ki requested for another molecule
Look at this molecule and give its reported Ki. C[C@@H]1CN(C(=O)[C@@H]2CN(C(C)(C)C)C[C@H]2c2ccc(F)cc2F)C[C@H](C)[C@@]1(O)c1ccc(F)cc1.Cl 520 nM

---

# assay notes: Association constant, pKa of the compound
# Assay type: physicochemical
Item-by-item account of pKa
Format: numeric value only, no unit, no commentary.

- C[C@@H]1CN(C(=O)[C@@H]2CN(C(C)(C)C)C[C@H]2c2ccc(F)cc2F)C[C@H](C)[C@@]1(O)c1ccccc1.Cl: 8.95

Look at this compound and give its reported pKa. C[C@@H]1CN(C(=O)[C@@H]2CN(C(C)(C)C)C[C@H]2c2ccc(F)cc2F)C[C@H](C)[C@@]1(O)c1ccc(F)cc1.Cl 8.74

---

# assay notes: Half life in dog at 0.14 mg/kg, sublingual
# Type: ADME, organism-based, Canis lupus familiaris
# Design: dose 0.14 mg/kg
# assay context: in vivo
measurement kind: half-life (h)
Report only the number, with the unit h understood.

Look at this compound and give its reported half-life. C[C@@H]1CN(C(=O)[C@@H]2CN(C(C)(C)C)C[C@H]2c2ccc(F)cc2F)C[C@H](C)[C@@]1(O)c1ccccc1.Cl 3.7

---

Item-by-item account of EC50
# target or system: Melanocortin receptor 5 (Homo sapiens)
# Sequence (P33032 whole entry): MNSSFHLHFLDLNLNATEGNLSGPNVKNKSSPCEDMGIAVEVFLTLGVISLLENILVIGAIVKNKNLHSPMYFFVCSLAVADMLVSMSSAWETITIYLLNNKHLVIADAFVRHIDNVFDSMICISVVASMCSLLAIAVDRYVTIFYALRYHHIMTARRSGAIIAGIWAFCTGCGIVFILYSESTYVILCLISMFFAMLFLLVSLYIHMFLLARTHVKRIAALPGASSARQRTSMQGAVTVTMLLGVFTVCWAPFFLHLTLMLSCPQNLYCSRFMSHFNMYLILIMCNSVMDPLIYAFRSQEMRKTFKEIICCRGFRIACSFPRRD
# assay notes: Agonist activity at human recombinant MC5 receptor expressed in HEK293 cells assessed as cAMP accumulation by beta lactamase reporter gene assay

Observe how each entry below is paired with its result.
* C[C@@H]1CN(C(=O)[C@H]2CN(c3ccncn3)C[C@@H]2c2ccc(F)cc2F)C[C@H](C)[C@@]1(O)c1ccccc1 | > 14 µM
* C[C@@H]1CN(C(=O)[C@H]2CN(C3CCOCC3)C[C@@H]2c2ccc(F)cc2F)C[C@H](C)[C@@]1(O)c1ccccc1 | > 20 µM

// below: EC50 requested for another compound
Look at this compound and give its reported EC50. CCCCN1C[C@H](C(=O)N2C[C@@H](C)[C@](O)(c3ccccc3)[C@@H](C)C2)[C@@H](c2ccc(F)cc2F)C1 1.43 µM

---

# target or system: UniProt:Q01726
# Sequence (Q01726 whole entry, the tested form may be a part): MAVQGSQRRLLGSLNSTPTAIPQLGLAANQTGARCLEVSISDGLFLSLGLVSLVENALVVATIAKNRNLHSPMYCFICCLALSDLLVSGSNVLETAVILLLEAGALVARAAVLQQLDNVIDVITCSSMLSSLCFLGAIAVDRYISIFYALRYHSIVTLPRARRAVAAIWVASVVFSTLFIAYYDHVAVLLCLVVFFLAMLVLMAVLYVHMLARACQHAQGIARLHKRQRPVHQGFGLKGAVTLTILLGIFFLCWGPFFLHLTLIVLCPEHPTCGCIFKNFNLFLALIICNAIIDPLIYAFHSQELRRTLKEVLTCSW
# assay notes: Agonist activity at human recombinant MC1 receptor expressed in HEK293 cells assessed as cAMP accumulation by enzyme fragment complementation assay
measurement kind: EC50 (nM)
Report only the number, with the unit nM understood.

Observe how each entry below is paired with its result.
- C[C@@H]1CN(C(=O)[C@H]2CN(c3cccnn3)C[C@@H]2c2ccc(F)cc2F)C[C@H](C)[C@@]1(O)c1ccccn1: 1850
- C[C@@H]1CN(C(=O)[C@@H]2CN(C(C)(C)C)C[C@H]2c2ccc(F)cc2F)C[C@H](C)[C@@]1(O)c1ccccn1: 1170

Look at this molecule and give its reported EC50. C[C@@H]1CN(C(=O)[C@@H]2CN(C(C)(C)C)C[C@H]2c2ccc(F)cc2F)C[C@H](C)[C@@]1(O)c1ccccc1.Cl 1020
